Species: Homo sapiens
Assay: Binding affinity to 5'-dabcyl/3'-fluorescein labeled human telomeric sequence G-quadruplex DNA assessed as change in melting temperature at 10 uM by fluorescence assay
Kindly supply the reported ΔTm values for the records listed here.
One number for each entry, in °C.

INSERT INTO measurements (entry_smiles, obs_value) VALUES
  ('CN(C)CCCOc1nc2ccccc2c2nc3ccccc3nc12', 1.4),
  ('CN(C)CCn1c(=O)c2nc3ccccc3nc2c2ccccc21', 2.7),
  ('CN(CCCCCNc1nc2ccccc2c2nc3ccccc3nc12)Cc1ccccc1', 3.1),
  ('O=c1[nH]c2ccccc2c2nc3ccccc3nc12', 0),
  ('Cc1cc2c(=O)n(CCCN(C)C)c3ccccc3c2nn1', 1.7),
  ('CCN(CC)CCOc1nc2ccccc2c2nc3ccccc3nc12', 1),
  ('Cc1cc2c(=O)n(CCN(C)C)c3ccccc3c2nn1', 1.2),
  ('CN(C)CCCCn1c(=O)c2nc3ccccc3nc2c2ccccc21', 4.8),
  ('c1ccc2nc3c(nc2c1)c(NCCN1CCOCC1)nc1ccccc13', 0),
  ('CCN(CC)CCn1c(=O)c2nc3ccccc3nc2c2ccccc21', 2.3);

Batch of 3 molecules: report ΔTm for each.
1. CN(C)CCCn1c(=O)c2nc3ccccc3nc2c2ccccc21
2. CN(C)CCNc1nc2ccccc2c2nc3ccccc3nc12
3. O=c1c2nc3ccccc3nc2c2ccccc2n1CCN1CCOCC1

1: 4.7; 2: 8.2; 3: 0.8

====

Test: Inhibition of thiazole orange binding to human telomeric sequence G-quadruplex DNA by fluorescence assay
Reported property: EC50 (µM)
Give bare numbers, in µM.

Which EC50 value is on record for CN(C)CCCCNc1nc2ccccc2c2nc3ccccc3nc12 ?
4.48

====

Provide the recorded pIC50 for the entries that follow.
Target: UniProt:P11388
Sequence (P11388 whole entry): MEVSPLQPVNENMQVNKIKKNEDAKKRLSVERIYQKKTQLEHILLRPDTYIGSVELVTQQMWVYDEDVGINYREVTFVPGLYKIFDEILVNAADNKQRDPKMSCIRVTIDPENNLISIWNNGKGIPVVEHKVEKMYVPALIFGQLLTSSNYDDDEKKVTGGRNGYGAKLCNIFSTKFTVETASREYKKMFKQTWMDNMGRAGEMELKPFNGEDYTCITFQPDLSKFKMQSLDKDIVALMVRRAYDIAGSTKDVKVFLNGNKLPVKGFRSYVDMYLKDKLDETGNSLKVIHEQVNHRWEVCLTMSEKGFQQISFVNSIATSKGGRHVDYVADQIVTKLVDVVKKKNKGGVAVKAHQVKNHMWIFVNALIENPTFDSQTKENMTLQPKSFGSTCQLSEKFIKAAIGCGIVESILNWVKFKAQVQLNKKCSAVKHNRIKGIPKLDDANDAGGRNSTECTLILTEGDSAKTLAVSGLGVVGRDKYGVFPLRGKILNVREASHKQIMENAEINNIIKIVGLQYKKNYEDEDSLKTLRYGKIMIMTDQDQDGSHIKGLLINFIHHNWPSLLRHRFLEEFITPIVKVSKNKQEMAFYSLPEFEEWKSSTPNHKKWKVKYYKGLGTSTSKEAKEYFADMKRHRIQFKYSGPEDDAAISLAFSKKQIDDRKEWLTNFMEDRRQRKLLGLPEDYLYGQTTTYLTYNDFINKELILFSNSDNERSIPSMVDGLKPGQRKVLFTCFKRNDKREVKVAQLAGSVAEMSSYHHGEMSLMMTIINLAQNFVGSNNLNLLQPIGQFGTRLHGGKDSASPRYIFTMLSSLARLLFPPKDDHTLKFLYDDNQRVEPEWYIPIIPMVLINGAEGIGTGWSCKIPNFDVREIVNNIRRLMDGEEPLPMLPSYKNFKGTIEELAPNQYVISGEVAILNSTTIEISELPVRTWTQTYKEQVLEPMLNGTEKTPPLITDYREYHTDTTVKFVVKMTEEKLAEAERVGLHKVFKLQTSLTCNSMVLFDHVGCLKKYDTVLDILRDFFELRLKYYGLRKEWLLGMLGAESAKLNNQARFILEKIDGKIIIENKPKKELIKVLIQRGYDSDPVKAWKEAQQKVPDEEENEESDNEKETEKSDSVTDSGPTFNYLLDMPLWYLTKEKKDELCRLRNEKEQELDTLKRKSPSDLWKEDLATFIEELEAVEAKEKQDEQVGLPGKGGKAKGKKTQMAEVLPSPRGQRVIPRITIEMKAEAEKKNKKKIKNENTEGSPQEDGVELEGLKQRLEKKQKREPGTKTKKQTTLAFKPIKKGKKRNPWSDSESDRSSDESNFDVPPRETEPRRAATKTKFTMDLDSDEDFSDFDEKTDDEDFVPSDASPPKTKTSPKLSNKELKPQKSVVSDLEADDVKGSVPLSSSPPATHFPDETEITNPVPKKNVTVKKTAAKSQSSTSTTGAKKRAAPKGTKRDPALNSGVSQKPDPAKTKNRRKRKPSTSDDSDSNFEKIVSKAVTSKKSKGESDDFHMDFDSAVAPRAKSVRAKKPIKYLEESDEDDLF
Answers are plain numbers, as −log10 of the molar value.

INSERT INTO results (entry_smiles, obs_value) VALUES
  ('CN(C)CCn1c(=O)c2nc3ccccc3nc2c2ccccc21', 4.45),
  ('COc1cccc2c1C(=O)c1c(O)c3c(c(O)c1C2=O)C[C@@](O)(C(=O)CO)C[C@@H]3O[C@H]1C[C@H](N)[C@H](O)[C@H](C)O1', 5.52),
  ('CCN(CC)CCn1c(=O)c2nc3ccccc3nc2c2ccccc21', 4.06),
  ('CN(C)CCCCNc1nc2ccccc2c2nc3ccccc3nc12', 5.29);

Which pIC50 value belongs to CN(C)CCSc1nc2ccccc2c2nc3ccccc3nc12 ?
4.75

====

Test: Binding affinity to 5'-dabcyl/3'-fluorescein labeled cKit G-quadruplex DNA (unknown origin) assessed as change in melting temperature at 10 uM by fluorescence assay
Field: ΔTm. Provide a value for each of the compounds that follow.
Answers are plain numbers, in °C.

Completed entries (count: 5):
INSERT INTO results (entry_smiles, reported_property, obs_value) VALUES
  ('CN(C)CCSc1nc2ccccc2c2nc3ccccc3nc12', 'ΔTm', 11.2),
  ('CN(CCCCCNc1nc2ccccc2c2nc3ccccc3nc12)Cc1ccccc1', 'ΔTm', 1.5),
  ('O=c1c2nc3ccccc3nc2c2ccccc2n1CCN1CCOCC1', 'ΔTm', 0),
  ('CN(C)CCCn1c(=O)c2nc3ccccc3nc2c2ccccc21', 'ΔTm', 7.8),
  ('CN(C)CCn1c(=O)c2nc3ccccc3nc2c2ccccc21', 'ΔTm', 4.8);

For the 7 compounds below, give their ΔTm values.
1. CCN(CC)CCNc1nc2ccccc2c2nc3ccccc3nc12
2. CN(C)CCCNc1nc2ccccc2c2nc3ccccc3nc12
3. CN(C)CCCOc1nc2ccccc2c2nc3ccccc3nc12
4. CN(C)CCCCn1c(=O)c2nc3ccccc3nc2c2ccccc21
5. c1ccc2nc3c(nc2c1)c(NCCN1CCCCC1)nc1ccccc13
6. c1ccc2nc3c(nc2c1)c(NCCN1CCOCC1)nc1ccccc13
7. CCN(CC)CCn1c(=O)c2nc3ccccc3nc2c2ccccc21

1: 5.8; 2: 6.9; 3: 3.8; 4: 7.4; 5: 2; 6: 0; 7: 4.5
